experiment: soluble fraction after stress (log2 fold change); higher = more stays soluble; pooled small domains, quantitative proteomics; settings: stress: pH 4
Criterion: soluble fraction (log2) meeting or surpassing -0.5. Met: yes (1). Not met: no (0).

Exam item: decide whether the reported soluble fraction (log2) for HMSQDEVVADMKADLGPDADNIIRSNIQWADGLVRKGILTESEREELDVMGGTPEAQRILVKLRTMQG is at least -0.5. no (0)

Next record, please: HMIDELLDPTHRIMVRHPRVDYVSPGFLIGPDKDVILWGFTGGIIARLFDFLGWTRPWDQSHVQDLPPYML yes (1)

Next record, please: HMERPPHELLSDREYQTMVMIASGRTLTQIAEEMSLSPKTVSVYRARLLEKMKLKNNAELTHYALKHKLV yes (1)

Next record, please: HMPLNAFDVAGYRLGYGGGYFDRTLAALSPRPLAVGVGFEINRLESIRPEAHDQRLDWIVTENGAFRPA no (0)

Next record, please: HMGPVPLASAADMEKFYSHLQQVLDEVDFKDRTGSGHLMARLRRLFQRTVLDQNEINILRGILMAVQGRR no (0)

Next record, please: HMLQLDATDRALIVATQGGLPLVPRPYQVVGEQLGISGEEVVARLRALLDAGVIRRIGAVPN yes (1)

Next record, please: HMEVDDEAIYQGHEPSIRLHRLLKDVGYNSALLPSVVTQIFKDFPGIELAKALPIAMQLLNED no (0)

Next record, please: HMEIVSTEEKIKRAAEQVFLLRGLEGARMQEIADVAGINKAMLHYYFRNKETLFDVILSEKL no (0)
